run_conditions: in methyl acetate, 298.15 K
quantity: solubility (mole fraction)

Item O=C(O)/C=C/c1ccc(O)cc1 has what recorded solubility (mole fraction)?
0.0176

###

run_conditions: in acetone, 298.15 K
quantity: solubility (mole fraction)
Give bare numbers.

Suppose we examine the compound O=C(O)/C=C/c1ccc(O)cc1 ; what solubility (mole fraction) value has been reported?
0.0428

###

run_conditions: in acetone, 318.15 K
quantity: solubility (mole fraction)
One number for each entry.

Return reported solubility (mole fraction); argument: O=C(O)/C=C/c1ccc(O)cc1
0.0619

###

run_conditions: in methanol, 328.15 K
quantity: solubility (mole fraction)
One number for each entry.

Recorded solubility (mole fraction) for O=C(O)/C=C/c1ccc(O)cc1 , please?
0.0693

###

run_conditions: in n-butanol, 318.15 K
quantity: solubility (mole fraction)
One number for each entry.

Using the record for O=C(O)/C=C/c1ccc(O)cc1 , report its solubility (mole fraction).
0.0647

###

run_conditions: in n-propanol, 308.15 K
quantity: solubility (mole fraction)
One number for each entry.

I am curious: what solubility (mole fraction) value has been reported for O=C(O)/C=C/c1ccc(O)cc1 ?
0.0478

###

run_conditions: in n-butanol, 293.15 K
quantity: solubility (mole fraction)
One number for each entry.

Given the compound O=C(O)/C=C/c1ccc(O)cc1 , what is its reported solubility (mole fraction)?
0.0323

###

run_conditions: in ethanol, 298.15 K
quantity: solubility (mole fraction)

Returns the measured solubility (mole fraction) for the input molecule. Input: O=C(O)/C=C/c1ccc(O)cc1
0.0456

###

run_conditions: in acetone, 293.15 K
quantity: solubility (mole fraction)
One number for each entry.

For the compound O=C(O)/C=C/c1ccc(O)cc1 , what solubility (mole fraction) is on record?
0.0383

###

run_conditions: in methyl acetate, 328.15 K
quantity: solubility (mole fraction)
Numbers only.

So what's the measured solubility (mole fraction) for this one? O=C(O)/C=C/c1ccc(O)cc1
0.0457

###

run_conditions: in isopropanol, 298.15 K
quantity: solubility (mole fraction)

# input compound: O=C(O)/C=C/c1ccc(O)cc1 ; wanted: its solubility (mole fraction)
0.0331

###

run_conditions: in methyl acetate, 313.15 K
quantity: solubility (mole fraction)

Reported solubility (mole fraction), compound O=C(O)/C=C/c1ccc(O)cc1 : ____
0.0292

###

run_conditions: in ethyl acetate, 303.15 K
quantity: solubility (mole fraction)
One number for each entry.

I have this molecule here, O=C(O)/C=C/c1ccc(O)cc1 , and I need its recorded solubility (mole fraction).
0.0144

###

run_conditions: in ethanol, 333.15 K
quantity: solubility (mole fraction)
One number for each entry.

Sample O=C(O)/C=C/c1ccc(O)cc1 — what was its solubility (mole fraction)?
0.0861

###

run_conditions: in isobutanol, 308.15 K
quantity: solubility (mole fraction)
Answers are plain numbers.

Data request, read-out solubility (mole fraction), for O=C(O)/C=C/c1ccc(O)cc1
0.0295

###

run_conditions: in n-propanol, 333.15 K
quantity: solubility (mole fraction)
One number for each entry.

Dear colleague, I am looking for the recorded solubility (mole fraction) of the following compound: O=C(O)/C=C/c1ccc(O)cc1
0.0791

###

run_conditions: in methyl acetate, 308.15 K
quantity: solubility (mole fraction)
Answers are plain numbers.

Can you look up the measured solubility (mole fraction) of O=C(O)/C=C/c1ccc(O)cc1 for me?
0.0244

###

run_conditions: in methanol, 298.15 K
quantity: solubility (mole fraction)

Give its solubility (mole fraction) value. Item: O=C(O)/C=C/c1ccc(O)cc1
0.0395
